- assay_notes: self-splicing fitness, log relative to wild type (ln ratio); higher = more splicing; Tetrahymena group I intron in knt gene, E. coli kanamycin selection, DiMSum; sequences stand for … in CUCUCU…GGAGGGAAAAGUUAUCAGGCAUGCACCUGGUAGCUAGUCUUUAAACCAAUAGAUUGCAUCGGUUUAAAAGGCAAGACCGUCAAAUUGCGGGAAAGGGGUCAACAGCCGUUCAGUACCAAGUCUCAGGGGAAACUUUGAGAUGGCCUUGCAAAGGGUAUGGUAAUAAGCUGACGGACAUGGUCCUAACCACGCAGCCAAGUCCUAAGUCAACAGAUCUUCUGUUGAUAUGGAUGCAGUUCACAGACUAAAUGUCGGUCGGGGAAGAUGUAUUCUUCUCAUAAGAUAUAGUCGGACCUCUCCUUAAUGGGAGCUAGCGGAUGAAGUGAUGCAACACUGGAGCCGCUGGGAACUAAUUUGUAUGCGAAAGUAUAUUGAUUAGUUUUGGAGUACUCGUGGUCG;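 further: selection with 25 µg/mL kanamycin versus none on LB agar overnight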
- assay_setup: 37 °C
Kindly note that classification relies on self-splicing fitness (ln) with these boundaries: bin A = under -2, bin B = from -2 up to -1, bin C = -1 and over

Worked set:
>>> category("AUUGAGCAAUAUUACGCCCA")
"bin B"
>>> category("AACGAGCAAUAUUACGUCAC")
"bin B"
>>> category("CUGCAGCAAUAUUACGGCUU")
"bin A"
>>> category("UCAAAGCAAUAUUACGGUGG")
"bin B"
>>> category("GUCGAGCAAUAUUACGAGUU")
"bin A"

Input: Class? Entry: "GCCAAGCAAUAUUACGCCGG"
Output: bin A

Input: Class? Entry: "ACCCAGCAAUAUUACGGCGC"
Output: bin C

Input: Class? Entry: "UAGCAGCAAUAUUACGCAAA"
Output: bin B

Input: Class? Entry: "ACAGAGCAAUAUUACGUAAG"
Output: bin B

Input: Class? Entry: "CCGCAGCAAUAUUACGUAAA"
Output: bin A

Input: Class? Entry: "UCAGAGCAAUAUUACGGGUC"
Output: bin A

Input: Class? Entry: "GGGCAGCAAUAUUACGCUCG"
Output: bin B

Input: Class? Entry: "AACGAGCAAUAUUACGCCCU"
Output: bin C

Input: Class? Entry: "AAGAAGCAAUAUUACGGACA"
Output: bin C

Input: Class? Entry: "GGGGAGCAAUAUUACGAUGA"
Output: bin A

Input: Class? Entry: "ACUUAGCAAUAUUACGUUCU"
Output: bin C

Input: Class? Entry: "CCAGAGCAAUAUUACGAAUC"
Output: bin A

Input: Class? Entry: "AAUGAGCAAUAUUACGAGGC"
Output: bin A
